Biological target: SST2 (Homo sapiens, UniProt P30874)
Construct: host or cells: PathHunter CHO-K1 SST2 cells
Sequence (P30874 whole entry): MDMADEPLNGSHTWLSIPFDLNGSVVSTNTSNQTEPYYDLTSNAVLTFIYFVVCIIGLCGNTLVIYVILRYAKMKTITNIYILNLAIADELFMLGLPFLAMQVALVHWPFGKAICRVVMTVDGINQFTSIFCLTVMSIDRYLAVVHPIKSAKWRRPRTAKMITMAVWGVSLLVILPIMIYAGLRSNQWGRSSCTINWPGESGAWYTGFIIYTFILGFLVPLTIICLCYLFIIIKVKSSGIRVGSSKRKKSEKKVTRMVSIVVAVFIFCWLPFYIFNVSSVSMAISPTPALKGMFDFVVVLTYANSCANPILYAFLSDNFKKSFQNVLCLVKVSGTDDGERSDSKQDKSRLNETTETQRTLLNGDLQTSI
Assay: PathHunter CHO-K1 SST2 Internalization Assay
Assay type: cell-based
Settings: PathHunter CHO-K1 SST2 cells; 90 min at 37 C; luminescence; read-out: Internalization EC50
endpoint: EC50 (nM)

compound="CC[C@@H](C)[C@H]([C@H](CC(=O)N1CCCC1[C@@H](OC)[C@H](C)C(=O)N[C@@H](C)[C@H](O)c1ccccc1)OC)N(C)C(=O)[C@H](NC(=O)[C@@H](C(C)C)N(C)C(=O)OCc1ccc(NC(=O)[C@@H](C)NC(=O)[C@H](NC(=O)[C@@H](CCCO)NC(=O)CCOCCC(=O)NCCNc2ncc(-c3cc(C)cc(F)c3)c(N3CCC(N)CC3)c2-c2nc3ccc(Cl)cc3[nH]2)C(C)C)c(O[C@H]2O[C@@H](C(=O)O)[C@H](O)[C@@H](O)[C@@H]2O)c1)C(C)C (some centres unmarked)" test_target="SST2 (Homo sapiens, UniProt P30874)" assay_result=4.9
compound=CC[C@H](C)[C@@H]([C@@H](CC(=O)N1CCC[C@H]1[C@H](OC)[C@@H](C)C(=O)N[C@H](C)[C@@H](O)c1ccccc1)OC)N(C)C(=O)[C@@H](NC(=O)[C@H](C(C)C)N(C)C(=O)OCc1ccc(NC(=O)[C@H](CCCNC(N)=O)NC(=O)[C@@H](NC(=O)[C@H](CCC(=O)O)NC(=O)CCOCCC(=O)NCCNc2ncc(-c3cc(C)cc(F)c3)c(N3CCC(N)CC3)c2-c2nc3ccc(Cl)cc3[nH]2)C(C)C)c(OCCN)c1)C(C)C test_target="SST2 (Homo sapiens, UniProt P30874)" assay_result=18
compound=CC[C@H](C)[C@@H]([C@@H](CC(=O)N1CCC[C@H]1[C@H](OC)[C@@H](C)C(=O)N[C@H](C)[C@@H](O)c1ccccc1)OC)N(C)C(=O)[C@@H](NC(=O)[C@H](C(C)C)N(C)C(=O)OCc1ccc(NC(=O)[C@H](CCCNC(N)=O)NC(=O)[C@@H](NC(=O)c2cn(CCOCCC(=O)NCCNc3ncc(-c4cc(C)cc(F)c4)c(N4CCC(N)CC4)c3-c3nc4cc(Cl)ccc4[nH]3)nn2)C(C)C)c(O[C@@H]2O[C@H](C(=O)N3CCNCC3)[C@@H](O)[C@H](O)[C@H]2O)c1)C(C)C test_target="SST2 (Homo sapiens, UniProt P30874)" assay_result=8.4
compound=CC[C@H](C)[C@@H]([C@@H](CC(=O)N1CCC[C@H]1[C@H](OC)[C@@H](C)C(=O)N[C@H](C)[C@@H](O)c1ccccc1)OC)N(C)C(=O)[C@@H](NC(=O)[C@H](C(C)C)N(C)C(=O)OCc1ccc(NC(=O)[C@H](CCCNC(N)=O)NC(=O)[C@@H](NC(=O)CCOCCC(=O)NCCNc2ncc(-c3cc(C)cc(F)c3)c(N3CCC(N)CC3)c2-c2nc3ccc(Cl)cc3[nH]2)C(C)C)c(O[C@@H]2O[C@H](C(=O)N(C)CCOCCC(=O)O)[C@@H](O)[C@H](O)[C@H]2O)c1)C(C)C test_target="SST2 (Homo sapiens, UniProt P30874)" assay_result=12
compound=CC[C@H](C)[C@@H]([C@@H](CC(=O)N1CCC[C@H]1[C@H](OC)[C@@H](C)C(=O)N[C@H](C)[C@@H](O)c1ccccc1)OC)N(C)C(=O)[C@@H](NC(=O)[C@H](C(C)C)N(C)C(=O)OCc1ccc(NC(=O)[C@H](CCCNC(N)=O)NC(=O)[C@@H](NC(=O)CCOCCC(=O)NCCCNc2ncc(-c3cc(C)cc(F)c3)c(N3CCC(N)CC3)c2-c2nc3ccc(Cl)cc3[nH]2)C(C)C)c(O[C@@H]2O[C@H](C(=O)O)[C@@H](O)[C@H](O)[C@H]2O)c1)C(C)C test_target="SST2 (Homo sapiens, UniProt P30874)" assay_result=4.1
